system: Rhesus monkey; assay: Unbound clearance in rhesus monkey at 0.5 mg/kg, iv or 2 mg/kg, po; type: ADME, organism-based, Macaca mulatta; details: in vivo
test.readout: CL free (L/h/kg)
The figure you give is taken to be in L/h/kg; do not add the unit.

A selection of reference data follows.
O=C(Nc1ccc(C[C@@H]2CC[C@H]([C@H](O)c3ccccc3)N2)cc1)[C@@H]1CCc2nccc(=O)n21 ... 1.98
C[C@@H](C(=O)Nc1ccc(C[C@@H]2CC[C@H]([C@H](O)c3ccccc3)N2)cc1)n1ncccc1=O ... 2.76

The record that follows has no CL free shown yet.
CL free for O=C(Cn1ncccc1=O)Nc1ccc(C[C@@H]2CC[C@H]([C@H](O)c3ccccc3)N2)cc1 is 1.98
